# RUN_DESCRIPTION: qHTS assay for MDR1-selective chemotherapeutics: Primary screen using the parental adenocarcinoma cell KB-3-1; further: nearly all actives have a fitted effect of over 60% in size
# PROTOCOL_CONDITIONS: KB-3-1 viability, CellTiter-Glo ATP luminescence, 72 h; series mostly up to 46.1 µM
The campaign covered roughly 400,000 compounds. About 5,500 (1.4%) were called active. Another 9% or so got no clear call; they are omitted. The call rests on the fitted dose curve; in most records, active means well fitted cell-killing curve with a large enough effect; inconclusive means small, poorly fitted or top-dose-only effect, or effect the other way; inactive means flat fitted curve, though single readings scatter. The full list was thinned out, with actives kept by preference.
Answer with one of the outcomes given here: true (1) for active, false (0) for inactive

Qu. What was the test verdict on CCC(C)[C@H]1COCCS(=O)(=O)N1Cc1ccc(C)cc1 (stereo not given in full) ?
Ans. false (0)

Qu. Query `COc1ccc(NC(=O)CSc2nc3ccccc3[nH]2)cc1` next
Ans. false (0)

Qu. Follow-up item: `Cc1ccc(C)c(N2CCN(C(=O)Cc3c(C(=O)O)c(C)cn3C)CC2)c1`
Ans. false (0)

Qu. Quick one: `CCN(CC)c1ccc(NS(=O)(=O)c2cc(-c3cc(C)no3)ccc2C)c(C)c1`
Ans. false (0)

Qu. // query: `COc1ccc(NC(=O)c2cnc(Nc3ccc(C)c(Cl)c3)c3ccccc23)cc1OC`
Ans. false (0)

Qu. Record: `O=C(NCCCN1CCOCC1)c1cn(-c2ccccc2)nc1-c1ccc(F)cc1`
Ans. false (0)

Qu. Continue with `COc1ccc2nc(N3CCN(C(=O)c4ccc([N+](=O)[O-])o4)CC3)sc2c1`
Ans. true (1)

Qu. Same question, `O=C(NCc1ccccc1Cl)C1=Cc2cc(Br)ccc2OC1` this time
Ans. false (0)

Qu. Try `CC1CCN(c2nc3ccc(C(=O)N4CCN(c5ccccc5)CC4)cc3s2)CC1` next.
Ans. false (0)

Qu. Moving on to `O=C(NCc1ccc(F)cc1)c1ccc2nc(N3CCCCC3)sc2c1`
Ans. false (0)

* * *

# RUN_DESCRIPTION: qHTS assay for MDR1-selective chemotherapeutics: Primary screen using the parental adenocarcinoma cell KB-3-1; further: nearly all actives have a fitted effect of over 60% in size
# PROTOCOL_CONDITIONS: KB-3-1 viability, CellTiter-Glo ATP luminescence, 72 h; series mostly up to 46.1 µM
Among all 400,000 compounds or so, about 5,500 (1.4%) were called active. Not shown: some 9% with an inconclusive outcome. Calls follow the shape of the dose curve; as a rule, active = well fitted cell-killing curve with a large enough effect; inconclusive = small, poorly fitted or top-dose-only effect, or effect the other way; inactive = flat fitted curve, though single readings scatter. This excerpt belongs to a sample that is enriched for actives.
Your answer must be one of the following: YES (active), NO (inactive)

Qu. State the result this test recorded for `COc1ccccc1NC(=O)CN1C(=O)c2ccccc2Sc2ccc(C(=O)N3CCCC3)cc21` .
Ans. NO

Qu. Try this compound next: `Cc1[nH]c2ccccc2c1C(=O)C(=O)N(C)c1ccccc1`
Ans. NO

Qu. What do you have for `CCCC(=O)Nc1cc(OCC)c(NC(=O)NC2CCCCC2)cc1OCC` ?
Ans. NO

Qu. Same thing, different compound: `COc1ccccc1NC(=O)C(=O)c1cc(C)n(-c2ccccc2F)c1C`
Ans. NO

Qu. Check COC(=O)C1(C)NC(c2ccc(C)cc2)C2C(=O)N(c3ccc(F)cc3)C(=O)C21 (stereo unspecified) too.
Ans. NO

Qu. Next compound: `Cc1ccc2cccc(NC(=O)c3cccc4ccccc34)c2n1`
Ans. NO

Qu. One more compound: `Cc1ccc2nc(COc3cccc(NC(=O)c4cccc(Cl)c4)c3)cc(=O)n2c1`
Ans. NO

Qu. Okay, and `C/C(=N\Nc1ccc(Cl)nn1)c1ccccc1O` ?
Ans. YES

Qu. And then `CCOc1cc(NC(=O)Nc2ccccc2)c(OCC)cc1NC(=O)CC` , what is it?
Ans. NO

Qu. Try `Fc1ccccc1Cc1ccc(Cl)nn1` next.
Ans. NO

Qu. Another compound: `O=C(NC1CCCCC1)c1ccc(Cn2c(SCc3ccccc3)nc3cccnc32)cc1`
Ans. NO

* * *

# RUN_DESCRIPTION: qHTS assay for MDR1-selective chemotherapeutics: Primary screen using the parental adenocarcinoma cell KB-3-1; further: nearly all actives have a fitted effect of over 60% in size
# PROTOCOL_CONDITIONS: KB-3-1 viability, CellTiter-Glo ATP luminescence, 72 h; series mostly up to 46.1 µM
Among all 400,000 compounds or so, about 5,500 (1.4%) were called active. Not shown: some 9% with an inconclusive outcome. The call rests on the fitted dose curve; in most records, active means well fitted cell-killing curve with a large enough effect; inconclusive means small, poorly fitted or top-dose-only effect, or effect the other way; inactive means flat fitted curve, though single readings scatter. The sample holds actives, similar compounds and a random draw of the others, so the mix is not that of the screen.
Respond using exactly one of the listed classes: active, inactive

Qu. Short answer needed: outcome of this test for `O=C(Cn1nc(CNc2ccc(Cl)cc2)[n+]2c1CCCCC2)c1ccc(Cl)cc1` ?
Ans. active

Qu. Same read-out for `CCSc1ncc(Cl)c(C(=O)Nc2c(C(=O)c3ccccc3)oc3ccccc23)n1` ?
Ans. inactive

Qu. And then `CCOC(=O)c1cccc(NS(=O)(=O)c2cc(-c3cnc(C)o3)ccc2OC)c1` , what is it?
Ans. inactive

Qu. Similarly, `NS(=O)(=O)c1ccc(NC(=O)C(=O)Nc2ccc3nc4n(c(=O)c3c2)CCCCC4)cc1` ?
Ans. inactive

Qu. Continue with `O=C(Cn1nc(C(F)(F)F)c2c1CCCC2)Nc1ccc(Cl)cc1`
Ans. inactive

Qu. Also `COc1ccccc1-c1noc(-c2ccc(NCc3ccccc3)c([N+](=O)[O-])c2)n1` ?
Ans. inactive

Qu. Repeat with `O=C(Cn1ncc(N2CCCC2)c(Br)c1=O)c1ccc(Cl)cc1`
Ans. inactive

Qu. Can you check `COc1ccc(Nc2cc(C)nc(-n3nc(C)cc3C)n2)cc1` next?
Ans. active

Qu. Item: `O=C(OC/C=C/CSc1nnc(-c2cccc3ccccc23)o1)c1ccc(F)cc1`
Ans. inactive

Qu. # repeat for `Cc1ccc(F)cc1S(=O)(=O)N1CCC(c2nc3ccccc3s2)CC1`
Ans. inactive

* * *

# RUN_DESCRIPTION: qHTS assay for MDR1-selective chemotherapeutics: Primary screen using the parental adenocarcinoma cell KB-3-1; further: nearly all actives have a fitted effect of over 60% in size
# PROTOCOL_CONDITIONS: KB-3-1 viability, CellTiter-Glo ATP luminescence, 72 h; series mostly up to 46.1 µM
Among all 400,000 compounds or so, about 5,500 (1.4%) were called active. Another 9% or so got no clear call; they are omitted. Calls follow the shape of the dose curve; as a rule, active = well fitted cell-killing curve with a large enough effect; inconclusive = small, poorly fitted or top-dose-only effect, or effect the other way; inactive = flat fitted curve, though single readings scatter. The sample as a whole holds a higher share of actives than the screen did.
Hi! Could you answer with just one of these? active, inactive

Qu. Hi, do you know how `Cc1ccc(C)c(Oc2c(C(F)(F)F)oc3c(CN4CCN(C)CC4)c(O)ccc3c2=O)c1` came out in this test?
Ans. inactive

Qu. Request: O=C(NCc1ccccc1)C(=O)NCC(c1ccco1)S(=O)(=O)c1ccc(Cl)cc1 (stereo not given)
Ans. inactive

Qu. Continue with `CCc1ccc(NC(=O)CN2CCSc3ccc(S(=O)(=O)N4CCCC4)cc32)cc1`
Ans. active

Qu. Entry to check: `COc1ccc(-c2ccc3ncnc(NCc4cccs4)c3c2)cc1OC`
Ans. inactive

Qu. How about `CC(=O)Nc1ccc(NC(=O)c2cc3sccc3n2Cc2ccc(F)cc2)cc1` ?
Ans. inactive

Qu. Please answer likewise for CCOC(=O)c1ccc(NC(=O)C2CC(=O)NC(=Nc3ccc(C)c(C)c3)S2)cc1 (stereo not given)
Ans. inactive

Qu. What would you report for `CC(C)(C)OC(=O)N(Cc1ccco1)S(=O)(=O)c1ccccc1Br` ?
Ans. inactive

Qu. Query `CCc1ccc(NC(=O)CN2C(=O)COc3ccc(S(=O)(=O)N4CCCC4)cc32)cc1` next
Ans. inactive

Qu. Try the compound `O=C(OC12CC3CC(CC(C3)C1)C2)c1ccc(NCc2cc(O)ccc2O)cc1`
Ans. active

Qu. Try the compound `O=C(CN1CCCCCC1)Nc1ccc(S(=O)(=O)N2CCCCC2)cc1`
Ans. inactive

* * *

# RUN_DESCRIPTION: qHTS assay for MDR1-selective chemotherapeutics: Primary screen using the parental adenocarcinoma cell KB-3-1; further: nearly all actives have a fitted effect of over 60% in size
# PROTOCOL_CONDITIONS: KB-3-1 viability, CellTiter-Glo ATP luminescence, 72 h; series mostly up to 46.1 µM
Hit rate of the full screen: of about 400,000 compounds, about 5,500 (1.4%) were called active. Not shown: some 9% with an inconclusive outcome. Calls come from the whole dose curve; as a rule, active = well fitted cell-killing curve with a large enough effect; inconclusive = small, poorly fitted or top-dose-only effect, or effect the other way; inactive = flat fitted curve, though single readings scatter. Shown is part of a subset that was picked to be rich in actives.
Please reply with one of these outcomes: Y for active, N for inactive

Qu. Each compound tested received a call. Report the one for `COCCNc1ncnc2c1ncn2[C@H]1CN(Cc2ccc(OC)cc2)C[C@@H](CO)O1` .
Ans. N

Qu. Lookup `COc1ccc(/C=C(\C#N)c2c[nH]c3ccccc23)cc1`
Ans. Y

Qu. Another: `Cc1nc2c(-c3ccccc3)c(C)nn2c(C)c1CCC(=O)NCCc1ccccc1`
Ans. N

Qu. And what about the compound CC1CC(C)CN(c2oc(-c3ccc(OCc4ccc(Cl)cc4)cc3)nc2C#N)C1 (configuration not stated) ?
Ans. N

Qu. `COc1ccc2sc(-c3ccc(S(C)(=O)=O)cc3)c(-c3ccc(C(N)=O)cc3)c2c1` ?
Ans. N

Qu. Now consider `OCc1cnc(SCc2ccc(F)cc2)n1Cc1ccc(F)cc1` .
Ans. N

Qu. One more compound: `NS(=O)(=O)c1ccc2nc(NC(=O)COc3ccccc3)sc2c1`
Ans. N

Qu. Moving on to OC(CBr)CN1CCCCC1 (configuration not stated)
Ans. N

Qu. And for `Cc1cc2c(cc3c(SCc4cccc(Cl)c4)nnc(C)n32)o1` ?
Ans. N

Qu. // next record `CC(C)C(=O)Nc1cccc(NC(=O)c2ccc([N+](=O)[O-])cc2Cl)c1`
Ans. N

Qu. Same thing, different compound: `COc1ccc2sc(-c3ccc(N(C)C)cc3)c(C#CCO)c2c1`
Ans. Y

Qu. Same question for CN(C(=O)c1cccc(OC2CCN(S(=O)(=O)N(C)C)CC2)c1)C1CCOC1 (configuration not stated) please.
Ans. N

Qu. Now the compound CCOc1ccc2nc(N3CCCC(C(=O)Nc4cc(C)ccc4C)C3)sc2c1 (configuration not stated)
Ans. N

Qu. Also `C[N+](C)(C)CCNC(=O)c1c[nH]c2ccccc12` ?
Ans. N

Qu. Another: `CC(C)Oc1ccc(NC(=O)c2cc3ccccc3o2)cc1`
Ans. N

Qu. What do you have for CC1CCCCC1NC(=O)COc1ccc(C#N)cc1 (configuration not stated) ?
Ans. N

Qu. Same question for `COc1ccc(-n2c(=O)c3c(c4cc(OC)ccc4n3C)n(Cc3cccc(C)c3)c2=O)cc1` please.
Ans. N

Qu. Now this one: `COc1ccc(CCNC(=O)c2ccc(-n3c(C)cc4c3CCCC4)cc2)cc1OC`
Ans. N

Qu. And then COc1ccc(C2C(C(C)=O)=C(O)C(=O)N2CCc2c[nH]c3ccccc23)cc1 (configuration not stated) , what is it?
Ans. N

Qu. For `CN(C)S(=O)(=O)N1CCC(Oc2cccc(C(=O)NCCCC3CCCC3)c2)CC1` then?
Ans. Y

Qu. Consider next the compound `COc1ccc(CNc2nnnn2C)cc1` in the same way.
Ans. N

Qu. Also, `CC(C)C(=O)Nc1cccc(NC(=S)NC(=O)C(c2ccccc2)c2ccccc2)c1` please.
Ans. Y
